The measured values listed here are drawn from ChEMBL document CHEMBL3988442.

Target: Tyrosyl-tRNA synthetase, putative (Trypanosoma cruzi (strain CL Brener)) (UniProt Q4DSP6)
Sequence (whole entry): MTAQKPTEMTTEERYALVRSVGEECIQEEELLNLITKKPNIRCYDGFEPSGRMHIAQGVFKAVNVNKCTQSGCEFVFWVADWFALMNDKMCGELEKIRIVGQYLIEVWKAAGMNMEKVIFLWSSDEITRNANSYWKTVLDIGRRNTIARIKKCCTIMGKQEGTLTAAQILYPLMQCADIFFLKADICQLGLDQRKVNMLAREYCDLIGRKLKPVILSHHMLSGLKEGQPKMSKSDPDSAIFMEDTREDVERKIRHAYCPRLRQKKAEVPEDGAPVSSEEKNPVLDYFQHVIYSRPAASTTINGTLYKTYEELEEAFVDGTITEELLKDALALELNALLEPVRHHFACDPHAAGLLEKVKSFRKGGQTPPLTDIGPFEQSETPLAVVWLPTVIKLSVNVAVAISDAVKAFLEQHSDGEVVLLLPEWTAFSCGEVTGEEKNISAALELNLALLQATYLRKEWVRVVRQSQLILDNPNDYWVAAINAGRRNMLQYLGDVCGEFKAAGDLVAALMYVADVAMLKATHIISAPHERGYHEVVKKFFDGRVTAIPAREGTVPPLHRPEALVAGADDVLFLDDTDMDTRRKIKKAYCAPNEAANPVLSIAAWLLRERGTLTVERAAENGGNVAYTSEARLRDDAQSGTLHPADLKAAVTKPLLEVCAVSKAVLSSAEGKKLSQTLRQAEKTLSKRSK
Assay: Trypanosoma cruzi tyrosyl tRNA synthetase (TcYRS) _High Tyrosine SOP; also: in the data most compounds retested in dose-response had high values
Format: functional
Design: scale not given: direction of the effect not stated beside the values
Conditions: 30 µM
# note: boundary value 3% maps to 0; Percent Effect below it maps to 1

{"columns": ["molecule", "group-label"],
 "data": [
  ["c1cc(NC2CC3(CCN(Cc4cc[nH]n4)C3)C2)ncn1 (stereo unspecified)", 1],
  ["CC[C@H](N)Cn1nc(-c2cccs2)oc1=O", 1],
  ["Cc1ccc(N2CCO[C@H]3CN(Cc4cnn(C)c4)C[C@H]32)nn1", 0],
  ["CO[C@@H]1CN(Cc2scnc2C)[C@@H]2CCCO[C@@H]21", 0],
  ["Cc1noc([C@@H]2C[C@H]3CN(Cc4cc(C)on4)C[C@H]3O2)n1", 0]
]}

Request: Is 3% strictly greater than the molecule's reported Percent Effect? molecule: `c1ccc(OC[C@H]2CCC[C@]23CN(Cc2nccs2)CCO3)nc1`
Response: 1

Request: Is 3% strictly greater than the molecule's reported Percent Effect? molecule: `c1ccc(O[C@H]2CC[C@H]3[C@H]2OCCN3Cc2nccs2)nc1`
Response: 0

Request: Is 3% strictly greater than the molecule's reported Percent Effect? molecule: Cc1nc(N(C)C)nc2c1COCC21CCN(CC2CC2)C1 (stereo unspecified)
Response: 0

Request: Is 3% strictly greater than the molecule's reported Percent Effect? molecule: `CO[C@H]1CCN(Cc2ccccn2)[C@@H]2CN(Cc3ccco3)C[C@H]12`
Response: 0

Request: Is 3% strictly greater than the molecule's reported Percent Effect? molecule: COCC1CC2(CCN(Cc3ccccn3)CC2)CN1C(C)C (stereo unspecified)
Response: 0

Request: Is 3% strictly greater than the molecule's reported Percent Effect? molecule: Cc1n[nH]c2c1C(c1cnn(C)c1)SCC(=O)N2 (stereo unspecified)
Response: 0

====

target: Aspartate--tRNA(Asp/Asn) ligase (Mycobacterium tuberculosis (strain ATCC 25618 / H37Rv)); experiment: Assay for Asp RNA synthetase-1 from Mycobacterium tuberculosis; format: functional; parameters: scale not given: direction of the effect not stated beside the values; conditions: 30 µM; also: in the data most compounds retested in dose-response had high values
Below is a list of entries, each paired with its recorded Percent Effect value.
# output: bare number, implied unit %

Here are 6 molecules together with their reported answers.
{"columns": ["molecule", "property", "unit-descriptor", "measured-number"],
 "data": [
  ["CC(=O)Nc1cccc(C(=O)Nc2cnc3n2CCCC3)c1", "Percent Effect", "%", 2.26],
  ["CN(Cc1cnn(C)c1)C(=O)Cn1c(CS(C)(=O)=O)nc2ccccc21", "Percent Effect", "%", -0.869],
  ["CCc1nc(NCCCn2cccn2)c2c(n1)c(C)nn2C", "Percent Effect", "%", -0.755],
  ["COc1ccc(C)cc1C(C)NC(=O)NCCCn1cncn1 (stereo unspecified)", "Percent Effect", "%", 2.78],
  ["Cn1ccnc1CN1CCC2(CC1)CC(Oc1cccnc1)C2", "Percent Effect", "%", 0.874],
  ["N#Cc1ccc(C(=O)N2CC[C@H]3[C@@H]2CCC(=O)N3c2cccnc2)cc1", "Percent Effect", "%", 2.4]
]}

Request: Requested read-out Percent Effect, target or system Aspartate--tRNA(Asp/Asn) ligase (Mycobacterium tuberculosis (strain ATCC 25618 / H37Rv)), entry Cc1ncc(C)c(N2CCCC(CO)(Cc3cccc(Cl)c3)C2)n1 (stereo unspecified); also: in the data most compounds retested in dose-response had high values
Response: 2.71

====

biological target: Shiga toxin 2 (Escherichia coli O157:H7) (UniProt P09385+P09386); assay: E. coli 0.157:H7 Shiga Toxin SOP - stx2 screening assay; assay type: functional; set-up: scale not given: direction of the effect not stated beside the values; details: 30 µM
Below is a list of entries, each paired with its recorded Percent Effect value.
# output: bare number, implied unit %

Here are 8 compounds together with their reported answers.
{"columns": ["compound", "target-or-test-system", "Percent Effect, %"],
 "data": [
  ["O=C1CO[C@@H]2CN(CC3CCOCC3)C[C@H]2N1CC1CC1", "Shiga toxin 2 (Escherichia coli O157:H7) (UniProt P09385+P09386)", 5.99],
  ["COCCN1CCN(Cc2cccc(OCC(N)=O)c2)CC1C (stereo unspecified)", "Shiga toxin 2 (Escherichia coli O157:H7) (UniProt P09385+P09386)", -6.57],
  ["CC(C)c1cnc(CNc2c(F)cccc2-n2cccn2)o1", "Shiga toxin 2 (Escherichia coli O157:H7) (UniProt P09385+P09386)", 9.22],
  ["Cc1cccc(CN2C(=O)C[C@H]3[C@@H]2CCN3CC2CC2)n1", "Shiga toxin 2 (Escherichia coli O157:H7) (UniProt P09385+P09386)", 4.71],
  ["Cc1ccccc1CS(=O)(=O)CC(=O)NCc1ccccc1F", "Shiga toxin 2 (Escherichia coli O157:H7) (UniProt P09385+P09386)", 10.5],
  ["O=C(NCCOc1ncc(Cl)cc1Cl)c1ccncc1", "Shiga toxin 2 (Escherichia coli O157:H7) (UniProt P09385+P09386)", -19.5],
  ["Cc1c(C)n(Cc2ccncc2)c2nc3c(c(N)c12)CCCCC3", "Shiga toxin 2 (Escherichia coli O157:H7) (UniProt P09385+P09386)", -41.4],
  ["CC(C)NC(=O)[C@@H]1CCO[C@@H]2CCN(c3ncccn3)C[C@H]21", "Shiga toxin 2 (Escherichia coli O157:H7) (UniProt P09385+P09386)", -19.4]
]}

Request: # input compound: O=C(c1ccc(Cl)o1)N1CCCC(c2cc(C(F)(F)F)[nH]n2)C1 (stereo unspecified) ; wanted: its Percent Effect
Response: 38.7

Request: # input compound: Cc1cccc(C(=O)NC2CCN(c3cnn(C)c3)C2=O)n1 (stereo unspecified) ; wanted: its Percent Effect
Response: -29.9

Request: # input compound: COc1ccnc(C(=O)N2CCCC(c3noc(C)n3)C2)c1 (stereo unspecified) ; wanted: its Percent Effect
Response: 1.38

====

Below is a list of entries, each paired with its recorded Percent Effect value.
target: Aspartate--tRNA(Asp/Asn) ligase (Mycobacterium tuberculosis (strain ATCC 25618 / H37Rv)) (UniProt P9WFW3); test: Assay for Asp RNA synthetase-1 from Mycobacterium tuberculosis; type: functional; design: scale not given: direction of the effect not stated beside the values; settings: 30 µM; also: in the data most compounds retested in dose-response had high values
Sequence (P9WFW3 whole entry): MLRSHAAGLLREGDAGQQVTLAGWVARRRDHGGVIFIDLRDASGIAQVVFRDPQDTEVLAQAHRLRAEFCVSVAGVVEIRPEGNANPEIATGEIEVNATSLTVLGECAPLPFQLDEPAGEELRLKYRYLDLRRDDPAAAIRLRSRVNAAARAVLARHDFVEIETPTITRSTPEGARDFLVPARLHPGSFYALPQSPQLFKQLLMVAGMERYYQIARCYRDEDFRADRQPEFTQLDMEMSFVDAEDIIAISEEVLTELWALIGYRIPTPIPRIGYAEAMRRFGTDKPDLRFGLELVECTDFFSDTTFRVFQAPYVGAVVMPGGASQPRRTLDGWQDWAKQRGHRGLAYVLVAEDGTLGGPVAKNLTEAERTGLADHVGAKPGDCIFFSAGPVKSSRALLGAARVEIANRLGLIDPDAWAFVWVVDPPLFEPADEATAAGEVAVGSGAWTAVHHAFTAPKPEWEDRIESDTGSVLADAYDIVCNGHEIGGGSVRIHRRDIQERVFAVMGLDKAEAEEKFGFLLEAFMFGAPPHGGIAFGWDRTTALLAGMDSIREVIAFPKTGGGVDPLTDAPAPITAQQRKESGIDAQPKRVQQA
# output: bare number, implied unit %

Here are 3 molecules together with their reported answers.
{"columns": ["molecule", "property", "measured-number"],
 "data": [
  ["Cc1cc(C(N)=O)ccc1NC(=O)c1nc(N2CCCC2)ncc1Cl", "Percent Effect", 1.84],
  ["CC(=O)N1CCCCC1c1cc(C(=O)N2CCOCC2)[nH]n1 (configuration not stated)", "Percent Effect", -0.551],
  ["Cc1ncc(CNC(=O)N(C)C2CCN(c3ccccc3)C2=O)s1 (configuration not stated)", "Percent Effect", -3.19]
]}

Request: # input molecule: `COc1cccc(CNCc2c(C(C)C)nn(C)c2N(C)C)c1OC` ; wanted: its Percent Effect
Response: -3.61

Request: # input molecule: `Cc1csc(CNC(=O)N(C)Cc2cnn(C)c2)n1` ; wanted: its Percent Effect
Response: 1.54

Request: # input molecule: `CS(=O)(=O)N1CCC(C(=O)N2CCC3(CC2)OCCCO3)CC1` ; wanted: its Percent Effect
Response: 3.34

====

molecular target: Shiga toxin 2 (Escherichia coli O157:H7) (UniProt P09385+P09386); assay: E. coli 0.157:H7 Shiga Toxin SOP - stx2 screening assay; format: functional; parameters: scale not given: direction of the effect not stated beside the values; conditions: 30 µM
Below is a list of entries, each paired with its recorded Percent Effect value.
# output: bare number, implied unit %

Here are 4 compounds together with their reported answers.
{"columns": ["compound", "property", "measured-number"],
 "data": [
  ["O=C(O)CC1CN(Cc2ccccc2)CCO1 (stereo not drawn)", "Percent Effect", -5.59],
  ["Cc1nc(CN2CCC(CNC(=O)Nc3ccccn3)CC2)oc1C", "Percent Effect", -4.66],
  ["CCc1ccc(S(=O)(=O)Nc2cn(C)cc(Br)c2=O)cc1", "Percent Effect", -8.3],
  ["CCN(CC)C(=O)Cn1ccc2cc(NC(=O)C3CC3)ccc21", "Percent Effect", -4.48]
]}

Request: # input compound: `Cc1ccc(CN2CCc3ncc(CNS(C)(=O)=O)n3CC2)o1` ; wanted: its Percent Effect
Response: -24.4

Request: # input compound: `O=C(NCc1ccco1)[C@H]1C[C@H]2OCC[C@H]2N(S(=O)(=O)C2CC2)C1` ; wanted: its Percent Effect
Response: -24.1
